System: HPV-16
Assay: qPCR sensitivity against HPV-HNSCC tumor samples diluted among 10 ng normal human DNA
Details: Sample # 13
observable: Threshold of tumor cell numbers for HPV-16 detection

Answered cases to consult:
Lookup: Quick one: Threshold of tumor cell numbers for HPV-16 detection for E7: previously designed (historical) HPV-16 E7 primers and Taqman probe, SEQ ID NO: 10-12; part of CLIA test (nucleic acid, Taqman probe, labels not given here, part of CLIA test) DNA 1: CCGGACAGAGCCCATTACAA DNA 2: CGAATGTCTACGTGTGTGCTTTG DNA 3: CGCACAACCGAAGCGTAGAGTCACACT ?
Found: 6.0 tumor cells

Lookup: Cool, now E6: previously designed (historical) HPV-16 E6 primers and Taqman probe, SEQ ID NO: 7-9, positive control (nucleic acid, Taqman probe, labels not given here) DNA 1: TCAGGACCCACAGGAGCG DNA 2: CCTCACGTCGCAGTAACTGTTG DNA 3: CCCAGAAAGTTACCACAGTTATGCACAGAGCT
Found: 6.0 tumor cells

Lookup: Cool, now HR E5L2-4: primer/probe set for junction between E5 and L2, SEQ ID NO: 55-57 (same as SEQ ID NO: 4-6) (nucleic acid, chemistry not given here) DNA 1: GCAAAACGCACAAAACGTGC DNA 2: GACATGTACCTGCCTGTTTGC DNA 3: CGGCTACCCAACTTTATAAAACA
Found: 30.0 tumor cells

Lookup: Cool, now BR E1-6: HPV-16 E1 region primer/probe set, SEQ ID NO: 43-45 (nucleic acid, chemistry not given here) DNA 1: ATGCACAATTGGCAGACACTAA DNA 2: AATCCTTTACAATTTTTGCCTGTGA DNA 3: AGTAATGCAAGTGCCTTTCTAAAAAGTA
Found: 6.0 tumor cells

# evaluate next
Lookup: Quick one: Threshold of tumor cell numbers for HPV-16 detection for BR E1-5: HPV-16 E1 region primer/probe set, SEQ ID NO: 40-42 (same as SEQ ID NO: 1-3) (nucleic acid, chemistry not given here) DNA 1: GCACAATTGGCAGACACTAAT DNA 2: GCACAATCCTTTACAATTTTTGCC DNA 3: AGTAATGCAAGTGCCTTTCTAAAAAGTAATTC ?
Found: 6.0 tumor cells
